FYI, the data here is from patent US10696689B2.

test: Liver microsomal stability assay; assay type: in vitro ADME; settings: human liver microsomes 0.5 mg/mL, 1 μM compound, 37° C.
recorded_metric: HLM t1/2 (h)

A: Nc1ncc(-c2cccc(F)c2)c(N2CC[C@@H]3NCCO[C@H]3C2)c1-c1nc2c(F)cc(F)cc2[nH]1
B: COc1cc(C#N)cc2[nH]c(-c3c(N)ncc(-c4cc(F)cc(F)c4)c3N3CC[C@@H]4NCCO[C@H]4C3)nc12
C: N#Cc1cc(F)c2nc(-c3c(N)ncc(-c4cc(F)cc(F)c4)c3N3CC[C@@H]4OCCN[C@H]4C3)[nH]c2c1
Data request: Using the list above, order everything by rising HLM t1/2. // respond by listing labels in the order requested
Data returned: B, A, C
(B: 1.65 h, A: 3.85 h, C: 5.78 h)
